Tested on: Cell membrane
ASSAY_NOTES: Induction of cell membrane […] in methicilin-resistant Staphylococcus aureus 21455 assessed as increase in fluorescence intensity at 16 times MIC by SYTOX green dye based fluorescence analysis
Assay type: cell membranes
Activity calls are given as the source filed them. The rule behind the calls is not given here.
PROPERTY: Activity

>>> readout_value("CC[C@H](C)[C@H](NC(=O)[C@@H](Cc1ccccc1)NC)C(=O)N[C@@H](CO)C(=O)N[C@H](CCCNC(=N)N)C(=O)N[C@@H](C(=O)N[C@H](C(=O)N[C@@H](CO)C(=O)N[C@H]1C(=O)N[C@@H](C)C(=O)N[C@@H](C2CCCCC2)C(=O)N[C@@H]([C@@H](C)CC)C(=O)O[C@H]1C)[C@@H](C)CC)[C@@H](C)CC")
"Active"
>>> readout_value("CC[C@H](C)[C@H](NC(=O)[C@@H](Cc1ccccc1)NC)C(=O)N[C@@H](CCCNC(=N)N)C(=O)N[C@H](CCCNC(=N)N)C(=O)N[C@@H](C(=O)N[C@H](C(=O)N[C@@H](CO)C(=O)N[C@H]1C(=O)N[C@@H](C)C(=O)N[C@@H](C2CCCCC2)C(=O)N[C@@H]([C@@H](C)CC)C(=O)O[C@H]1C)[C@@H](C)CC)[C@@H](C)CC")
"Active"
>>> readout_value("CC[C@H](C)[C@H](NC(=O)[C@@H](Cc1ccccc1)NC)C(=O)N[C@@H](CO)C(=O)N[C@H](CCC(N)=O)C(=O)N[C@@H](C(=O)N[C@H](C(=O)N[C@@H](CO)C(=O)N[C@H]1C(=O)N[C@@H](C)C(=O)N[C@@H](C2CCCCC2)C(=O)N[C@@H]([C@@H](C)CC)C(=O)O[C@H]1C)[C@@H](C)CC)[C@@H](C)CC")
"10.6%"

----------
Tested on: Staphylococcus epidermidis
ASSAY_NOTES: Antibacterial activity against Staphylococcus epidermidis 12228 assessed as inhibition of bacterial growth
Assay type: functional
PROPERTY: MIC (µg/mL)

>>> readout_value("CC[C@H](C)[C@H](NC(=O)[C@@H](Cc1ccccc1)NC)C(=O)N[C@@H](CCCNC(=N)N)C(=O)N[C@H](CCCNC(=N)N)C(=O)N[C@@H](C(=O)N[C@H](C(=O)N[C@@H](CO)C(=O)N[C@H]1C(=O)N[C@@H](CCCNC(=N)N)C(=O)N[C@@H](C2CCCCC2)C(=O)N[C@@H]([C@@H](C)CC)C(=O)O[C@H]1C)[C@@H](C)CC)[C@@H](C)CC")
0.063
>>> readout_value("CCCC[C@@H]1NC(=O)[C@H](C)NC(=O)[C@H](NC(=O)[C@H](CO)NC(=O)[C@@H](NC(=O)[C@H](NC(=O)[C@@H](CCC(N)=O)NC(=O)[C@H](CO)NC(=O)[C@@H](NC(=O)[C@@H](Cc2ccccc2)NC)[C@@H](C)CC)[C@@H](C)CC)[C@@H](C)CC)[C@H](C)OC(=O)[C@H]([C@@H](C)CC)NC1=O")
0.063
>>> readout_value("CC[C@H](C)[C@H](NC(=O)[C@@H](Cc1ccccc1)NC)C(=O)N[C@@H](CO)C(=O)N[C@H](CCC(N)=O)C(=O)N[C@@H](C(=O)N[C@H](C(=O)N[C@@H](CO)C(=O)N[C@H]1C(=O)N[C@@H](C)C(=O)N[C@@H](C2CCCCC2)C(=O)N[C@@H]([C@@H](C)CC)C(=O)O[C@H]1C)[C@@H](C)CC)[C@@H](C)CC")
0.063
>>> readout_value("CCC[C@@H]1NC(=O)[C@H](C)NC(=O)[C@H](NC(=O)[C@H](CO)NC(=O)[C@@H](NC(=O)[C@H](NC(=O)[C@@H](CCCNC(=N)N)NC(=O)[C@H](CO)NC(=O)[C@@H](NC(=O)[C@@H](Cc2ccccc2)NC)[C@@H](C)CC)[C@@H](C)CC)[C@@H](C)CC)[C@H](C)OC(=O)[C@H]([C@@H](C)CC)NC1=O")
0.063
>>> readout_value("CC[C@H](C)[C@H](NC(=O)[C@@H](Cc1ccccc1)NC)C(=O)N[C@@H](CO)C(=O)N[C@H](CCC(N)=O)C(=O)N[C@@H](C(=O)N[C@H](C(=O)N[C@@H](CO)C(=O)N[C@H]1C(=O)N[C@@H](CCCNC(=N)N)C(=O)N[C@@H](C2CCCCC2)C(=O)N[C@@H]([C@@H](C)CC)C(=O)O[C@H]1C)[C@@H](C)CC)[C@@H](C)CC")
0.063
>>> readout_value("CCC[C@@H]1NC(=O)[C@H](CCCNC(=N)N)NC(=O)[C@H](NC(=O)[C@H](CO)NC(=O)[C@@H](NC(=O)[C@H](NC(=O)[C@@H](CCC(N)=O)NC(=O)[C@H](CCCNC(=N)N)NC(=O)[C@@H](NC(=O)[C@@H](Cc2ccccc2)NC)[C@@H](C)CC)[C@@H](C)CC)[C@@H](C)CC)[C@H](C)OC(=O)[C@H]([C@@H](C)CC)NC1=O")
0.063

----------
System: Staphylococcus aureus
ASSAY_NOTES: Antibacterial activity against Staphylococcus aureus 4299 assessed as inhibition of bacterial growth
Format: functional
PROPERTY: MIC (µg/mL)

>>> readout_value("CC[C@H](C)[C@H](NC(=O)[C@@H](Cc1ccccc1)NC)C(=O)N[C@@H](CCCNC(=N)N)C(=O)N[C@H](CCCNC(=N)N)C(=O)N[C@@H](C(=O)N[C@H](C(=O)N[C@@H](CO)C(=O)N[C@H]1C(=O)N[C@@H](C)C(=O)N[C@@H](C2CCCCC2)C(=O)N[C@@H]([C@@H](C)CC)C(=O)O[C@H]1C)[C@@H](C)CC)[C@@H](C)CC")
0.125
>>> readout_value("CCC[C@@H]1NC(=O)[C@H](C)NC(=O)[C@H](NC(=O)[C@H](CO)NC(=O)[C@@H](NC(=O)[C@H](NC(=O)[C@@H](CCC(N)=O)NC(=O)[C@H](CO)NC(=O)[C@@H](NC(=O)[C@@H](Cc2ccccc2)NC)[C@@H](C)CC)[C@@H](C)CC)[C@@H](C)CC)[C@H](C)OC(=O)[C@H]([C@@H](C)CC)NC1=O")
0.063
>>> readout_value("CCC[C@@H]1NC(=O)[C@H](CCCNC(=N)N)NC(=O)[C@H](NC(=O)[C@H](CO)NC(=O)[C@@H](NC(=O)[C@H](NC(=O)[C@@H](CCCNC(=N)N)NC(=O)[C@H](CO)NC(=O)[C@@H](NC(=O)[C@@H](Cc2ccccc2)NC)[C@@H](C)CC)[C@@H](C)CC)[C@@H](C)CC)[C@H](C)OC(=O)[C@H]([C@@H](C)CC)NC1=O")
0.063
>>> readout_value("COc1c(N2C[C@@H]3CCCN[C@@H]3C2)c(F)cc2c(=O)c(C(=O)O)cn(C3CC3)c12")
0.125
>>> readout_value("CCC[C@@H]1NC(=O)[C@H](CCCNC(=N)N)NC(=O)[C@H](NC(=O)[C@H](CO)NC(=O)[C@@H](NC(=O)[C@H](NC(=O)[C@@H](CCCNC(=N)N)NC(=O)[C@H](CCCNC(=N)N)NC(=O)[C@@H](NC(=O)[C@@H](Cc2ccccc2)NC)[C@@H](C)CC)[C@@H](C)CC)[C@@H](C)CC)[C@H](C)OC(=O)[C@H]([C@@H](C)CC)NC1=O")
16
>>> readout_value("CC[C@H](C)[C@H](NC(=O)[C@@H](Cc1ccccc1)NC)C(=O)N[C@@H](CCCNC(=N)N)C(=O)N[C@H](CCCNC(=N)N)C(=O)N[C@@H](C(=O)N[C@H](C(=O)N[C@@H](CO)C(=O)N[C@H]1C(=O)N[C@@H](CCCNC(=N)N)C(=O)N[C@@H](C2CCCCC2)C(=O)N[C@@H]([C@@H](C)CC)C(=O)O[C@H]1C)[C@@H](C)CC)[C@@H](C)CC")
1
>>> readout_value("CC[C@H](C)[C@H](NC(=O)[C@@H](Cc1ccccc1)NC)C(=O)N[C@@H](CCCNC(=N)N)C(=O)N[C@H](CCC(N)=O)C(=O)N[C@@H](C(=O)N[C@H](C(=O)N[C@@H](CO)C(=O)N[C@H]1C(=O)N[C@@H](C)C(=O)N[C@@H](C2CCCCC2)C(=O)N[C@@H]([C@@H](C)CC)C(=O)O[C@H]1C)[C@@H](C)CC)[C@@H](C)CC")
0.063

----------
ASSAY_NOTES: Hemolytic activity in rabbit erythrocytes assessed as hemolysis at 64 microg/ml relative to control
Assay type: toxicity, cell-based, Oryctolagus cuniculus, Erythrocyte
ASSAY_SETUP: at 64 µg/mL, read-out: Activity
As shown below, each of these molecules has a reported hemolysis at 64 microg/ml value.
PROPERTY: hemolysis at 64 microg/ml (%)

>>> readout_value("CC[C@H](C)[C@H](NC(=O)[C@@H](Cc1ccccc1)NC)C(=O)N[C@@H](CCCNC(=N)N)C(=O)N[C@H](CCCNC(=N)N)C(=O)N[C@@H](C(=O)N[C@H](C(=O)N[C@@H](CO)C(=O)N[C@H]1C(=O)N[C@@H](C)C(=O)N[C@@H](C2CCCCC2)C(=O)N[C@@H]([C@@H](C)CC)C(=O)O[C@H]1C)[C@@H](C)CC)[C@@H](C)CC")
3.7
>>> readout_value("CC[C@H](C)[C@H](NC(=O)[C@@H](Cc1ccccc1)NC)C(=O)N[C@@H](CCCNC(=N)N)C(=O)N[C@H](CCCNC(=N)N)C(=O)N[C@@H](C(=O)N[C@H](C(=O)N[C@@H](CO)C(=O)N[C@H]1C(=O)N[C@@H](CCCNC(=N)N)C(=O)N[C@@H](C2CCCCC2)C(=O)N[C@@H]([C@@H](C)CC)C(=O)O[C@H]1C)[C@@H](C)CC)[C@@H](C)CC")
5.4

These measurements were taken from ChEMBL document CHEMBL5634143.
